Assay: Plasma and brain tissue concentrations after intravenous bolus injection (CNS disposition)
Assay type: in vivo, mice
Conditions: female, NSG (NOD.Cg-Prkdc^scid Il2rg^tm1Wjl/SzJ), mouse, brain, iv; mice, 0.5 mg/kg i.v., after 22 h; read-out: brain tissue concentration
Description: The experiments were carried out in accordance with the European regulations for care and use of laboratory animals (2010/63/EU) under the German license number G-187/18 and the internal reference number DKFZ374, approved by the responsible regional council (Regierungspräsidium Karlsruhe, Germany). […] For validation of the UPLC-MS/MS quantification, blank plasma from 6 naïve mice was used and blank brain tissue was obtained from 2 unexposed mice. […]
*1 amine or outer side, *2 acyl side, *3 side chain or, on linkers, in order; H or OH if unused. Where a SMILES comes first, the peptide text is derived from it. Bridges are numbered along the chain shown (N, C = ends). Roman numbers before positions name the chains, in order. [ ]: non-standard residue; d: D form. Actinocin(9to1) = Cc1c2oc3c(C)ccc(C(=O)[*:1])c3nc-2c(C(=O)[*:2])c(N)c1=O; NMeV = CN[C@H](C(=O)O)C(C)C; Sar = CNCC(=O)O
QUANTITY_KIND: level at time molar at 22 h

Could you please provide reported level at time molar at 22 h for Cc1c2oc3c(C)ccc(C(=O)N[C@@H]4C(=O)N[C@H](C(C)C)C(=O)N5CCC[C@H]5C(=O)N(C)CC(=O)N(C)[C@@H](C(C)C)C(=O)O[C@@H]4C)c3nc-2c(C(=O)N[C@@H]2C(=O)N[C@H](C(C)C)C(=O)N3CCC[C@H]3C(=O)N(C)CC(=O)N(C)[C@@H](C(C)C)C(=O)O[C@@H]2C)c(N)c1=O [actinomycin D, Actinomycin D] (I: T[dV]P[Sar][NMeV] / II: T[dV]P[Sar][NMeV]; ester I:1-I:C, II:1-II:C; linker I:N-II:N via Actinocin(9to1)) ? Thanks!
~1.2 nM
